This collection of values is drawn from patent US20220274980A1.

Target: ENL YEATS domain (association with H3K27cr) (Homo sapiens)
Assay: biochemical
Conditions: ENL (YEATS)-H3K27cr HTRF (IC50, μM), Table 1
readoutName: IC50 (µM)

Example results:
{"compound": "O=C(NC1CCC1O)c1ccc2nc(-c3ccccc3)cn2c1 (stereo not drawn)", "readingUnit": "µM", "IC50": 36}
{"compound": "O=C(CCCCN1CCCCC1)Nc1cccc(-c2cn3cc(C(=O)NC4CCC4)ccc3n2)c1", "readingUnit": "µM", "IC50": 0.696}
{"compound": "CC1CCN(CCNS(=O)(=O)Nc2cccc(-c3cn4cc(C(=O)NC5CCC5)ccc4n3)c2)CC1", "readingUnit": "µM", "IC50": 0.029}
{"compound": "CC(NC(=O)c1ccc2nc(-c3ccccc3)cn2c1)c1ccncc1 (stereo not drawn)", "readingUnit": "µM", "IC50": 12}
{"compound": "O=C(CCN1CCOCC1)Nc1cccc(-c2cn3cc(C(=O)NC4CCC4)ccc3n2)c1", "readingUnit": "µM", "IC50": 0.306}

[A] O=C(NC1CCC1)c1ccc2nc(-c3cccc(NS(=O)(=O)NCC(=O)N4CCCCC4)c3)cn2c1
[B] CC(C)NC(=O)c1ccc2nc(-c3cccc(NS(=O)(=O)NCCc4cccs4)c3)cn2c1
Which is greater in IC50, the first item A or the second item B ? Provide the label of your selected option as the answer.
B
(B: 1.36 µM, A: 0.101 µM)

* * *

Target: ENL YEATS domain (association with H3K27cr) (Homo sapiens, UniProt Q03111)
Assay: biochemical
Conditions: ENL (YEATS)-H3K27cr HTRF (IC50, μM), Table 1
readoutName: IC50 (µM)

{"molSmiles": "CC(C)NC(=O)c1ccc2nc(-c3ccc(C#N)cc3)cn2c1", "readingUnit": "µM", "IC50": 2.9}
{"molSmiles": "O=C(NC1CCC1)c1ccc2nc(-c3cccc(NS(=O)(=O)NCCc4c[nH]cn4)c3)cn2c1", "readingUnit": "µM", "IC50": 0.1}

[1] Cc1cc(-c2cn3cc(C(=O)NC(C)C)ccc3n2)ccn1
[2] Cc1ccc(-c2cn3cc(C(=O)NC(C)C)ccc3n2)cc1
[3] CC(C)NC(=O)c1ccc2nc(-c3cccc(NS(=O)(=O)NCCCCCCC(=O)O)c3)cn2c1
[4] Cc1ccc(-c2cn3cc(C(=O)NC4CCC4)ccc3n2)cc1
[5] CC(C)NC(=O)c1ccc2nc(-c3cccc(NS(=O)(=O)NCCCO)c3)cn2c1
Highest IC50 first, then in falling order down to the smallest. Enter labels, ranked according to the request.
1, 2, 4, 5, 3

* * *

Biological target: ENL(YEATS)-HiBiT (Homo sapiens, UniProt Q03111)
Sequence (Q03111 1-138 limits assumed): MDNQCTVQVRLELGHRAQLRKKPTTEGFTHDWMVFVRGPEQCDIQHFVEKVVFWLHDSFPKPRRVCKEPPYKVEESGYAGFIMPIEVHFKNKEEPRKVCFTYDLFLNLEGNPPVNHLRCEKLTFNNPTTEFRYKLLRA
Test: cell-based
In this section, each of the compounds is paired with its reported IC50.

Consider the worked cases shown below.
{"compound": "CC(C)NC(=O)c1ccc2nc(-c3cccc(OC(F)(F)F)c3)cn2c1 [Compound 3]", "IC50": "> 100 µM"}
{"compound": "CC(C)NC(=O)c1ccc2nc(-c3ccc(OC(F)(F)F)cc3)cn2c1 [Compound 19]", "IC50": "> 100 µM"}

# evaluate next
Return reported IC50; argument: O=C(NC1C2CC1C2)c1ccc2nc(-c3ccccc3)cn2c1 (stereo not drawn) [Compound 84]
> 50 µM

* * *

Target: ENL YEATS domain (association with H3K27cr) (Homo sapiens)
Test: biochemical
Conditions: ENL (YEATS)-H3K27cr HTRF (IC50, μM), Table 1
readoutName: IC50 (µM)

Illustrative cases are given below, each with its answer.
{"molecule": "CC(C)NC(=O)c1ccc2nc(-c3cccc(NS(=O)(=O)NCCCCO)c3)cn2c1 [Compound 62]", "valueMeasured": 0.3}
{"molecule": "O=C(NCCN1CCCCC1)Nc1cccc(-c2cn3cc(C(=O)NC4CCC4)ccc3n2)c1", "valueMeasured": 0.153}
{"molecule": "CC(C)NC(=O)c1ccc2nc(-c3cccc(NS(=O)(=O)NCCc4c[nH]cn4)c3)cn2c1", "valueMeasured": 0.12}

[P] CC(C)NC(=O)c1ccc2nc(-c3cccc(NS(=O)(=O)NCCc4ccc(N)cc4)c3)cn2c1
[Q] COC(=O)[C@H]1CCCN1S(=O)(F)=Nc1cccc(-c2cn3cc(C(=O)NC(C)C)ccc3n2)c1 (stereo partly drawn)
Which is greater in IC50, the first item P or the second item Q ? In your reply, give the label of the chosen option.
Q
